Data origin, for the record: the supplement of paper PMC10646978

System: RAW-Dual (murine macrophage reporter line)
measurementProtocol: NF-kB reporter (SEAP) activity fold change vs agonist alone; higher = enhanced NF-kB activity
measurementConditions: modulator concentration 10 µM; agonist: LPS 0.1 ug/mL
Please mark T if the recorded NF-kB reporter is equal to or greater than 1, and F if it falls below.

molecule: O=C1CSC(=S)N1N=Cc1ccc(O)c([N+](=O)[O-])c1
assaySystem: RAW-Dual (murine macrophage reporter line)
classAssignment: T
--
molecule: CC1(C)OC[C@@H](COC(=O)CCc2ccc(OC[C@@H](O)CNCCNC(=O)N3CCOCC3)cc2)O1.Cl
assaySystem: RAW-Dual (murine macrophage reporter line)
classAssignment: F
--
molecule: O=C1C(=Cc2ccccc2)SC(=S)N1CO
assaySystem: RAW-Dual (murine macrophage reporter line)
classAssignment: F
--
molecule: C[C@H](Cc1cc2c(c(C(N)=O)c1)N(CCCO)CC2)NCCOc1ccccc1OCC(F)(F)F
assaySystem: RAW-Dual (murine macrophage reporter line)
classAssignment: T
--
molecule: C#CCN[C@@H]1CCc2ccccc21
assaySystem: RAW-Dual (murine macrophage reporter line)
classAssignment: F
--
molecule: O=C(Nc1nccs1)c1ccc2c(c1)C(=O)N(CC1CCCO1)C2=O (configuration not stated)
assaySystem: RAW-Dual (murine macrophage reporter line)
classAssignment: F
--
molecule: C[C@@H](O[C@H]1OCCN(Cc2nc(=O)[nH][nH]2)[C@H]1c1ccc(F)cc1)c1cc(C(F)(F)F)cc(C(F)(F)F)c1
assaySystem: RAW-Dual (murine macrophage reporter line)
classAssignment: F
--
molecule: CC(Cc1ccccc1)NC(=O)C1COc2ccccc2O1 (configuration not stated)
assaySystem: RAW-Dual (murine macrophage reporter line)
classAssignment: T
--
molecule: CCN(CC)c1ccc2cc(-c3nnc(NCc4ccccc4)s3)c(=O)oc2c1
assaySystem: RAW-Dual (murine macrophage reporter line)
classAssignment: T
--
molecule: O=Cc1c[nH]c2ccccc12
assaySystem: RAW-Dual (murine macrophage reporter line)
classAssignment: T
--
molecule: CCC(C)(C)C(=O)O[C@H]1C[C@@H](C)C=C2C=C[C@H](C)[C@H](CC[C@@H]3C[C@@H](O)CC(=O)O3)[C@H]21
assaySystem: RAW-Dual (murine macrophage reporter line)
classAssignment: T
--
molecule: CCCCCCOc1ccc(OC(=O)c2ccc(OC)cc2)cc1
assaySystem: RAW-Dual (murine macrophage reporter line)
classAssignment: F
--
molecule: Cc1nnc(C(=O)NC(C)(C)c2nc(C(=O)NCc3ccc(F)cc3)c(O)c(=O)n2C)o1
assaySystem: RAW-Dual (murine macrophage reporter line)
classAssignment: T
--
molecule: CN1CCN(c2c(F)cc3c(=O)c(C(=O)O)cn4c3c2OCN4C)CC1
assaySystem: RAW-Dual (murine macrophage reporter line)
classAssignment: T
